System: DMS-114
Test: NCI tumour cell line growth inhibition, 48 h
Calls of active or inactive are those of the source. No stated cut-off is given here; in the data, active = GI50 up to about 1.1 µM and inactive = higher.
Could you please pick one outcome from this set? Yes for active, No for inactive

>  <COMPOUND>
C/C(CC(=O)Nc1cc(Cl)c(Cl)cc1Cl)=N\NC(N)=O

>  <GROUP_LABEL>
No

$$$$
>  <COMPOUND>
Cn1c(=O)c2c(nc3n2C(CCl)CO3)n(C)c1=O (stereo not drawn)

>  <GROUP_LABEL>
No

$$$$
>  <COMPOUND>
C[C@]12CCC(=O)C=C1CC[C@@H]1C2CC[C@]2(C)Nc3[nH]ncc3CC12 (stereo partly drawn)

>  <GROUP_LABEL>
No

$$$$
>  <COMPOUND>
CCOC(=O)C1C=C2O[C@@H]3OC4(CCCCC4)O[C@@H]3C2[C@H]2C(=O)C=CC(=O)[C@@]12C(=O)OC (stereo partly drawn)

>  <GROUP_LABEL>
No

$$$$
>  <COMPOUND>
CCOC(=O)[C@@]12C(C)=CC(=O)O[C@]1(C)C[C@H]2C#N

>  <GROUP_LABEL>
No

$$$$

Qu. Tell me the assay call for COc1ccc(Br)c2c1CC(C(=O)O)CC2 (stereo not drawn) please.
Ans. No

Qu. Can you look up the reported call for CC(=O)OC1COC(N2C(=O)C(=O)c3c(C)cc(Cl)nc32)C(OC(C)=O)C1OC(C)=O (stereo not drawn) for me?
Ans. No

Qu. Per the records of this test, what outcome belongs to O=NN1C(c2ccccc2)C2CCCC(C2=O)C1c1ccccc1 (stereo not drawn) ?
Ans. No

Qu. Returns: the outcome recorded for N#CCCN(c1ccc(/C=N/c2ccccc2)cc1)S(=O)(=O)c1ccccc1 in this assay.
Ans. No

Qu. How was COC(=O)c1c(-c2ccccc2)cc2c3cc(-c4ccccc4)c(C(=O)OC)n3c3ccccc3n12 classified in this test?
Ans. No

Qu. # fetch the recorded call for CC(C)=CC1CC(=[N+]=[N-])C(=O)C1(C)C (stereo not drawn) here
Ans. No

Qu. Returns: the outcome recorded for O=S(=O)(c1ccccc1)C1CN2OC1(S(=O)(=O)c1ccccc1)CC2c1ccc(Br)cc1 (stereo not drawn) in this assay.
Ans. No

Qu. What was the test verdict on CCSC(=O)N1c2ccc(OC)cc2C=CC1C#N (stereo not drawn) ?
Ans. Yes

----------
Test system: UO-31
Test: NCI tumour cell line growth inhibition, 48 h
Active and inactive are the calls of the source. Rule as the data show it: active = GI50 up to about 1.1 µM and inactive = higher. *1 amine or outer side, *2 acyl side, *3 side chain or, on linkers, in order; H or OH if unused. Where a SMILES comes first, the peptide text is derived from it. [ ]: non-standard residue; d: D form. The star is where a group is joined. ξ: configuration not given here. X26 = O=C([C@H]1CCC[C@H]1N[*:1])[*:2]; ξW = NC(Cc1c[nH]c2ccccc12)C(=O)O; ξF = NC(Cc1ccccc1)C(=O)O; Boc = CC(C)(C)OC(=O)*; ξK = NCCCCC(N)C(=O)O; ξT = CC(O)C(N)C(=O)O; tBu = CC(C)(C)*
Parameter: GI50. Scope: all listed entries.

>  <COMPOUND>
CC(OC(C)(C)C)C1NC(=O)C(CCCCNC(=O)OC(C)(C)C)NC(=O)C(Cc2c[nH]c3ccccc23)NC(=O)C(Cc2ccccc2)NC(=O)[C@H]2CCC[C@H]2NC(=O)C(Cc2ccccc2)NC1=O (stereo partly drawn) (cyclo([X26][ξF][ξW][ξK](Boc)[ξT](tBu)[ξF]))

>  <TARGET_OR_TEST_SYSTEM>
UO-31

>  <PROPERTY>
GI50

>  <RESULT_VALUE>
> 100 µM (inactive)

$$$$

Qu. State measured GI50 of the compound CO[C@H]1C=CO[C@@]2(C)Oc3c(C)c(O)c4c(O)c(c(CN5CCN(C)CC5)c(O)c4c3C2=O)NC(=O)/C(C)=C\C=C[C@H](C)[C@H](O)C(C)[C@@H](O)C(C)[C@H](OC(C)=O)[C@@H]1C (stereo partly drawn) with UO-31.
Ans. 33.7 µM (inactive)

Qu. Given CCOC(=O)c1nc2ccc(C(F)(F)F)cc2nc1Oc1ccc(F)cc1 , report its GI50 on UO-31.
Ans. > 100 µM (inactive)

Qu. Param request: GI50 | system UO-31 | item CCOC(=O)N/N=C(\Cc1ccccc1)OCC
Ans. > 100 µM (inactive)

Qu. Report the value of GI50 obtained on UO-31 for CC(=O)Oc1c(OC(C)C)cc(=O)n2ccsc12 .
Ans. > 100 µM (inactive)

Qu. Write GI50 of COc1cccc(/C=C2/Sc3scc(-c4ccccc4)[n+]3C2=O)c1O ; system used: UO-31
Ans. 13.3 µM (inactive)

Qu. Provide measured GI50 on UO-31 for CC(C)(C)c1ccc(OCCOCCOc2ccc(C(C)(C)C)cc2S(N)(=O)=O)c(S(N)(=O)=O)c1 please.
Ans. 5.85 µM (inactive)

Qu. Quote GI50 with test system UO-31 for COc1ccc(C2C(C=O)C(N3CCN(C)CC3)=Nc3nc4ccccc4n32)cc1 (stereo not drawn)
Ans. 14.4 µM (inactive)
